Molecular target: T1, human CD131 (human, UniProt P32927 17-897)
T1 sequence: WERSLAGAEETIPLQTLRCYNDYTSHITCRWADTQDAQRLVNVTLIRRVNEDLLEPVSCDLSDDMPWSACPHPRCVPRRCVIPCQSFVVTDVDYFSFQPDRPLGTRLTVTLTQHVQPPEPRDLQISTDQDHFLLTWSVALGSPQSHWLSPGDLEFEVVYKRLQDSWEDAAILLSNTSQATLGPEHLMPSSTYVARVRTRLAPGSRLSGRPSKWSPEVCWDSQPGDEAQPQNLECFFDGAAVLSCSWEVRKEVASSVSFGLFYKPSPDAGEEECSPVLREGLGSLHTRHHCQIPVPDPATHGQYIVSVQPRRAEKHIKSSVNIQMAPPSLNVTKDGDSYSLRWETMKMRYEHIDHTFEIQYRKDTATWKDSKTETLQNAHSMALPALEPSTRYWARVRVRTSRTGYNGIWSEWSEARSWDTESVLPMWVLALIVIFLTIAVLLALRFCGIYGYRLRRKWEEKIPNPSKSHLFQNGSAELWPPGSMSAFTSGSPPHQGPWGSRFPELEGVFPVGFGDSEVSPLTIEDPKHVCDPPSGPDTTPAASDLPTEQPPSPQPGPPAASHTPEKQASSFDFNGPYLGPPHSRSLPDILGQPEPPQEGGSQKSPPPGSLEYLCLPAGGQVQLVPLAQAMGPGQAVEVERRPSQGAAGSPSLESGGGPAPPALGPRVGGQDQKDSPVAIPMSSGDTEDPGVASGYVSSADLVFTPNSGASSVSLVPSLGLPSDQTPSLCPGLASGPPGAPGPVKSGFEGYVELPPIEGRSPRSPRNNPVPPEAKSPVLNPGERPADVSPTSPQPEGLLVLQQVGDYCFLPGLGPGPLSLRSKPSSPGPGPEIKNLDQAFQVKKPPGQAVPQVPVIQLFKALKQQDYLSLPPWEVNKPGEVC
Assay: cell-based or functional assay
# IC50 GM-CSF, TF-1 proliferation values compiled below
Just the number please, in nM, no unit attached.

Ask: Query IC50 GM-CSF, TF-1 proliferation for 9A2-VR39.148 (antibody, V domains shown) VH: EVQLLESGGGLVQPGGSLRLSCAASGFTFSHYHMLWVRQAPGKGLEWVSSINGRGRVTHVAQEVKGRFTISRDNSKNTLYLQMNSLRAEDTAVYYCARFYDSFFDIWGQGTMVTVSS VL: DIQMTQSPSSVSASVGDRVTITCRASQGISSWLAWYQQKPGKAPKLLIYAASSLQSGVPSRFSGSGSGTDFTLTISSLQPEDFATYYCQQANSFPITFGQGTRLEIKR
Reply: 1.12

Ask: Please look at this binder and report its IC50 GM-CSF, TF-1 proliferation: 9A2-VR39.46 (antibody, V domains shown) VH: EVQLLESGGGLVQPGGSLRLSCAASDVDFGWYHMLWVRQAPGKGLEWVSSINGRGRVTYYADSVKGRFTISRDNSKNTLYLQMNSLRAEDTAVYYCARFYDSFFDIWGQGTMVTVSS VL: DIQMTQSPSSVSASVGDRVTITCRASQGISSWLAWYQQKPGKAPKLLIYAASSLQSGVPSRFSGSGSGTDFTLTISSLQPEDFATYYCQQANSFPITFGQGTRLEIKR
Reply: 3.34

Ask: Supply recorded IC50 GM-CSF, TF-1 proliferation for 9A2-VR24.27 (antibody, V domains shown) VH: EVQLLESGGGLVQPGGSLRLSCAASGFTFPWYRVHWVRQAPGKGLEWVSSIRSSGGFPYYHQKVKGRFTISRDNSKNTLYLQMNSLRAEDTAVYYCARFYDSFFDIWGQGTMVTVSS VL: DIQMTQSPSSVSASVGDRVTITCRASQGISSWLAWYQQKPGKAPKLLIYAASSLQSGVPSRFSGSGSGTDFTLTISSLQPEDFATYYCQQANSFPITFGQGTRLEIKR here.
Reply: 0.25
